assay: melting temperature; fluorescence melt of hairpins on a sequencing array, two-state fit, raised by 9.35 °C to match UV melts
condition label: sodium 0.088 M
param class (str): category from Tm; see ranges label 0 (below 40 °C), label 1 (40 °C to below 50 °C), label 2 (50 °C or more)

Some entries whose results are on file:
>>> cat("GTGCAAGGAAACTTGTGC (..((((....))))..)")
"label 0"
>>> cat("GATTTTGGAAACAGAATC ((((.((....)).))))")
"label 0"
>>> cat("GTGTGGGGAAACCCATGC (..((((....))))..)")
"label 1"

Q: Which band does GATCCCTATTGGGATC ((((((....)))))) fall in?
A: label 2

Q: Which band does GGAAACACGAAAGTGTCC (((..(((....)))))) fall in?
A: label 0

Q: Which band does GACGTCGGAAACGGCGTC ((((.((....)).)))) fall in?
A: label 2

Q: Which band does GTTGGCGAAAGCCGGAAC ((((((....)))..))) fall in?
A: label 0

Q: Which band does GGGGATGAAAATCCCC ((((((....)))))) fall in?
A: label 2

Q: Which band does GATGCCGAAAGGCTCATC ((((((....)))..))) fall in?
A: label 0

Q: Which band does GACGGACGAAAGTCGTC (((.(((....)))))) fall in?
A: label 2

Q: Which band does GGTTAAGGAAACTTAATC (.(((((....))))).) fall in?
A: label 0

Q: Which band does GCAAGGCGAAAGCTATGC (((..((....))..))) fall in?
A: label 1

Q: Which band does GCACTCGAAAGAGTGTGC ((((((....)))..))) fall in?
A: label 2

Q: Which band does GTCAGCACGAAAGTGGAC (((..(((....)))))) fall in?
A: label 0

Q: Which band does GATCGTGCAACGATC ((((((...)))))) fall in?
A: label 2

Q: Which band does GGTTTAGGAAACTAAACC (((((((....))))))) fall in?
A: label 2

Q: Which band does GTTCTCGCGAAAGCGAAC (((..(((....)))))) fall in?
A: label 0

Q: Which band does GGAGGAGCGAAAGCTTCC (((..(((....)))))) fall in?
A: label 0

---

Measured folding enthalpy, listed per entry.
assay: folding enthalpy; higher = less favourable; fluorescence melt of hairpins on a sequencing array, two-state fit
condition label: sodium 0.088 M
# output: numeric value plus its unit

// solved cases for folding enthalpy follow
>>> test_result("GAGAGCGGAAACGTTCTC ((((.((....)).))))")
"-34.6 kcal/mol"
>>> test_result("GCAGGCGGAAACGTCTGC ((((.((....)).))))")
"-35.3 kcal/mol"
>>> test_result("GATCCCGGAGGGGATC ((((((....))))))")
"-19.4 kcal/mol"

folding enthalpy measured on GCACTGCGAAAGCATAGC ((..(((....)))..)) = -15.3 kcal/mol

folding enthalpy measured on GCGCACGAAAGTGGCCGC ((((((....)))..))) = -19.4 kcal/mol

folding enthalpy measured on GTGGCACCGAAAGGTCAC (((..(((....)))))) = -14.9 kcal/mol
